Target: Glutamate carboxypeptidase 2 (Homo sapiens)
Sequence (Q04609 whole entry): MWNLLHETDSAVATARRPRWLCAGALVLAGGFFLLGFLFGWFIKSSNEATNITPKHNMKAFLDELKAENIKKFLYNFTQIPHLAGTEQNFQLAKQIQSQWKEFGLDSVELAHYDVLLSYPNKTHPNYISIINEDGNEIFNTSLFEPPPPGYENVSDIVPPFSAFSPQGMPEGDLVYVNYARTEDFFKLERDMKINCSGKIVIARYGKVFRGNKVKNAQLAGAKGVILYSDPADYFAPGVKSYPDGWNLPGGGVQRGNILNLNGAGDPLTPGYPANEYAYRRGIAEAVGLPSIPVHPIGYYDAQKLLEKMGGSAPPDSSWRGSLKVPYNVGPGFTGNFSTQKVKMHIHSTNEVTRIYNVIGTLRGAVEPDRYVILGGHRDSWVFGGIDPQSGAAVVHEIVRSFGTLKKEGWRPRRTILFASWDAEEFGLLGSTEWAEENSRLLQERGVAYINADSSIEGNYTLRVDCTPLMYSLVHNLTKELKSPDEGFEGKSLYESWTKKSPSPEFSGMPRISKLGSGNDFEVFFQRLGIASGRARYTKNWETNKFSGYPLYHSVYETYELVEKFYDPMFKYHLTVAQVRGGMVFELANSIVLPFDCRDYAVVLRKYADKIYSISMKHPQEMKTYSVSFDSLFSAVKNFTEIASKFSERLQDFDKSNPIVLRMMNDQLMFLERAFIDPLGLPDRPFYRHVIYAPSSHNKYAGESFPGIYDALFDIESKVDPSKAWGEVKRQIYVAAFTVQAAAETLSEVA
Assay: Binding affinity to human recombinant PSMA assessed as dissociation constant by fluorescence polarization assay
measure_name: Kd (nM)
Express it in nM; write the number only.

For reference, reported Kd for `COC(=O)[C@H](CCCCNC(=S)Nc1ccc2c(c1)C(=O)OC21c2ccc(O)cc2Oc2cc(O)ccc21)NC(=O)[C@@H]1C[C@@H](NC(=O)c2c[nH]nn2)CN1C(=O)c1cnoc1C1CC1` stands at 332

For reference, reported Kd for `CC(C)c1oncc1C(=O)N1C[C@H](NC(=O)c2c[nH]nn2)C[C@H]1C(=O)N[C@@H](CCCCNC(=S)Nc1ccc2c(c1)C(=O)OC21c2ccc(O)cc2Oc2cc(O)ccc21)C(=O)O` stands at 178

For reference, reported Kd for `O=C(N[C@@H]1C[C@@H](C(=O)N[C@@H](CCCCNC(=S)Nc2ccc3c(c2)C(=O)OC32c3ccc(O)cc3Oc3cc(O)ccc32)C(=O)O)N(C(=O)c2cnoc2-c2ccccc2)C1)c1c[nH]nn1` stands at 23

For reference, reported Kd for `O=C(N[C@@H]1C[C@@H](C(=O)NCCOCCOCCNC(=S)Nc2ccc3c(c2)C(=O)OC32c3ccc(O)cc3Oc3cc(O)ccc32)N(C(=O)c2cnoc2C2CC2)C1)c1c[nH]nn1` stands at 310

* * *

Biological target: UniProtKB Q04609
Assay: Displacement of [177Lu]LU-PSMA-617 from human recombinant PSMA assessed as dissociation constant by fluorescence polarization assay
pKd: −log10 of the molar value.
measure_name: pKd

Entry `O=C(NCCCC[C@H](NC(=O)[C@@H]1C[C@@H](NC(=O)c2c[nH]nn2)CN1C(=O)c1cnoc1C1CC1)C(=O)O)c1c[nH]nn1` , UniProtKB Q04609 data, pKd value: < 4.70

Entry `CC(=O)NC[C@H](NC(=O)[C@@H]1C[C@@H](NC(=O)c2c[nH]nn2)CN1C(=O)c1c[nH]nn1)C(=O)O` , UniProtKB Q04609 data, pKd value: < 4.70

Entry `CC(=O)NCCCC[C@H](NC(=O)[C@@H]1C[C@@H](NC(=O)c2c[nH]nn2)CN1C(=O)c1c[nH]nn1)C(=O)O` , UniProtKB Q04609 data, pKd value: 4.82

Entry `O=C(NC[C@H](NC(=O)[C@@H]1C[C@@H](NC(=O)c2c[nH]nn2)CN1C(=O)c1c[nH]nn1)C(=O)O)c1c[nH]nn1` , UniProtKB Q04609 data, pKd value: 6.64

Entry `NCCCC[C@H](NC(=O)[C@@H]1C[C@@H](NC(=O)c2c[nH]nn2)CN1C(=O)c1c[nH]nn1)C(=O)O` , UniProtKB Q04609 data, pKd value: < 4.70

Entry `CC(=O)NC[C@H](NC(=O)[C@@H]1C[C@@H](NC(=O)c2c[nH]nn2)CN1C(=O)c1cnoc1C1CC1)C(=O)O` , UniProtKB Q04609 data, pKd value: < 4.70

Entry `O=C(NCCCC[C@H](NC(=O)[C@@H]1C[C@@H](NC(=O)c2c[nH]nn2)CN1C(=O)c1c[nH]nn1)C(=O)O)c1c[nH]nn1` , UniProtKB Q04609 data, pKd value: < 4.70

* * *

pKd: −log10 of the molar value.
measure_name: pKd

Entry `O=C(N[C@@H]1C[C@@H](C(=O)N[C@@H](CCCCNC(=S)Nc2ccc3c(c2)C(=O)OC32c3ccc(O)cc3Oc3cc(O)ccc32)C(=O)O)N(C(=O)c2cnoc2C2CC2)C1)c1c[nH]nn1` , Natural cytotoxicity triggering receptor 1 (Homo sapiens, UniProt O76036) data, pKd value: < 5.48

* * *

Target: N-acetylated-alpha-linked acidic dipeptidase 2 (Homo sapiens)
Sequence (Q9Y3Q0 whole entry): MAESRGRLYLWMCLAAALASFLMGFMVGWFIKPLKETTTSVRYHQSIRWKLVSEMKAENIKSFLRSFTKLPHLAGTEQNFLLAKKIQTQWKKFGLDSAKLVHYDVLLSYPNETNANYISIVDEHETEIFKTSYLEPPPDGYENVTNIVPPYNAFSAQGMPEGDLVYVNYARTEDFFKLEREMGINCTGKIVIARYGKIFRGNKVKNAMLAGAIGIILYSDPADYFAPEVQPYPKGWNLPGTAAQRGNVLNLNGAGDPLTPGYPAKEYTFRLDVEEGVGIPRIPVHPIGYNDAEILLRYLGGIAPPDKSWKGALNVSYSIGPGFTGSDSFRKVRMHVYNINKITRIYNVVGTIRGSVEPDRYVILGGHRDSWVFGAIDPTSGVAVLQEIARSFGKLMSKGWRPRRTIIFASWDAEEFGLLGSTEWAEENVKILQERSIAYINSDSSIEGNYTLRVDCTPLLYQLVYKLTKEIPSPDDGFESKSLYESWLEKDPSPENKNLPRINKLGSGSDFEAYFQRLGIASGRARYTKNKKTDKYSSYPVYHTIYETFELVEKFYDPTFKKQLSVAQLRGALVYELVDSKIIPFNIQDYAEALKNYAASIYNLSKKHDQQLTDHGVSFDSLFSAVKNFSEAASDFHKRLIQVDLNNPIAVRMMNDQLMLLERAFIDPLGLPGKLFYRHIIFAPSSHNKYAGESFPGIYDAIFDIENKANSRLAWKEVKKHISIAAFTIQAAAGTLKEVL
Assay: Binding affinity to human recombinant GCPIII assessed as dissociation constant by fluorescence polarization assay
pKd: −log10 of the molar value.
I would appreciate it if you labelled entries 1 (yes) when pKd is 8 or higher, otherwise 0 (no).

Reported pKd at or above 8? `Cc1[nH]nnc1C(=O)N[C@@H]1C[C@@H](C(=O)N[C@@H](CCCCNC(=S)Nc2ccc3c(c2)C(=O)OC32c3ccc(O)cc3Oc3cc(O)ccc32)C(=O)O)N(C(=O)c2cnoc2C2CC2)C1`
0 (no)

Reported pKd at or above 8? `O=C(N[C@@H]1C[C@@H](C(=O)N[C@@H](CCCCNC(=S)Nc2ccc3c(c2)C(=O)OC32c3ccc(O)cc3Oc3cc(O)ccc32)C(=O)O)N(C(=O)c2cnoc2C2CC2)C1)c1nc[nH]n1`
0 (no)

Reported pKd at or above 8? `N=c1ccc2c(-c3ccc(C(=O)NCCCC[C@H](NC(=O)[C@@H]4C[C@@H](NC(=O)c5c[nH]nn5)CN4C(=O)c4cnoc4C4CC4)C(=O)O)cc3C(=O)O)c3ccc(N)c(S(=O)(=O)O)c3oc-2c1S(=O)(=O)O`
1 (yes)

Reported pKd at or above 8? `O=C(N[C@@H]1C[C@@H](C(=O)NCCOCCOCCNC(=S)Nc2ccc3c(c2)C(=O)OC32c3ccc(O)cc3Oc3cc(O)ccc32)N(C(=O)c2cnoc2C2CC2)C1)c1c[nH]nn1`
0 (no)

Reported pKd at or above 8? `O=C1OC2(c3ccc(O)cc3Oc3cc(O)ccc32)c2ccc(NC(=S)NCCCC[C@H](NC(=O)[C@@H]3C[C@@H](n4cc(-c5c[nH]nn5)nn4)CN3C(=O)c3cnoc3C3CC3)C(=O)O)cc21`
0 (no)

Reported pKd at or above 8? `O=C(N[C@@H]1C[C@@H](C(=O)N[C@@H](CCCCNC(=S)Nc2ccc3c(c2)C(=O)OC32c3ccc(O)cc3Oc3cc(O)ccc32)C(=O)O)N(C(=O)c2cnoc2C2CC2)C1)c1c[nH]cn1`
0 (no)

Reported pKd at or above 8? `CC(=O)N1C[C@H](NC(=O)c2c[nH]nn2)C[C@H]1C(=O)N[C@@H](CCCCNC(=S)Nc1ccc2c(c1)C(=O)OC21c2ccc(O)cc2Oc2cc(O)ccc21)C(=O)O`
0 (no)

Reported pKd at or above 8? `Cn1cc(C(=O)N[C@@H]2C[C@@H](C(=O)N[C@@H](CCCCNC(=S)Nc3ccc4c(c3)C(=O)OC43c4ccc(O)cc4Oc4cc(O)ccc43)C(=O)O)N(C(=O)c3cnoc3C3CC3)C2)nn1`
0 (no)

Reported pKd at or above 8? `O=C(N[C@@H]1C[C@@H](C(=O)N[C@@H](CNC(=S)Nc2ccc3c(c2)C(=O)OC32c3ccc(O)cc3Oc3cc(O)ccc32)C(=O)O)N(C(=O)c2c[nH]nn2)C1)c1c[nH]nn1`
1 (yes)

Reported pKd at or above 8? `CC(C)c1nocc1C(=O)N1C[C@H](NC(=O)c2c[nH]nn2)C[C@H]1C(=O)N[C@@H](CCCCNC(=S)Nc1ccc2c(c1)C(=O)OC21c2ccc(O)cc2Oc2cc(O)ccc21)C(=O)O`
0 (no)

Reported pKd at or above 8? `O=C(N[C@@H](CCCCNC(=S)Nc1ccc2c(c1)C(=O)OC21c2ccc(O)cc2Oc2cc(O)ccc21)C(=O)O)c1c[nH]nn1`
0 (no)

Reported pKd at or above 8? `CC(=O)N[C@@H]1C[C@@H](C(=O)N[C@@H](CCCCNC(=S)Nc2ccc3c(c2)C(=O)OC32c3ccc(O)cc3Oc3cc(O)ccc32)C(=O)O)N(C(=O)c2cnoc2C2CC2)C1`
0 (no)

Reported pKd at or above 8? `O=C(Cn1ccnn1)N[C@@H]1C[C@@H](C(=O)N[C@@H](CCCCNC(=S)Nc2ccc3c(c2)C(=O)OC32c3ccc(O)cc3Oc3cc(O)ccc32)C(=O)O)N(C(=O)c2cnoc2C2CC2)C1`
0 (no)

Reported pKd at or above 8? `CC(C)c1oncc1C(=O)N1C[C@H](NC(=O)c2c[nH]nn2)C[C@H]1C(=O)N[C@@H](CCCCNC(=S)Nc1ccc2c(c1)C(=O)OC21c2ccc(O)cc2Oc2cc(O)ccc21)C(=O)O`
1 (yes)

Reported pKd at or above 8? `O=C(N[C@@H]1C[C@@H](C(=O)N[C@@H](CCCCNC(=S)Nc2ccc3c(c2)C(=O)OC32c3ccc(O)cc3Oc3cc(O)ccc32)C(=O)O)N(C(=O)c2c[nH]nn2)C1)c1c[nH]nn1`
1 (yes)

Reported pKd at or above 8? `O=C1OC2(c3ccc(O)cc3Oc3cc(O)ccc32)c2ccc(NC(=S)NCCCC[C@H](NC(=O)[C@@H]3C[C@@H](Cc4c[nH]nn4)CN3C(=O)c3cnoc3C3CC3)C(=O)O)cc21`
0 (no)

Reported pKd at or above 8? `Cn1nncc1C(=O)N[C@@H]1C[C@@H](C(=O)N[C@@H](CCCCNC(=S)Nc2ccc3c(c2)C(=O)OC32c3ccc(O)cc3Oc3cc(O)ccc32)C(=O)O)N(C(=O)c2cnoc2C2CC2)C1`
0 (no)
